Quick reference: metabolised at 0.25 h, 1 µM of the listed items.
Test: Drug metabolism in mouse liver microsomes at 1 uM after 15 mins by LC-MS/MS analysis
Format: ADME, microsome
Conditions: read-out: Drug metabolism
readout.kind: metabolised at 0.25 h, 1 µM (%)

> print(dat)
                            compound.string                 readout.kind  result.value
1  Cc1cc(NC(=O)c2cccc(S(=O)(=O)NC(C)C)c2)ccc1F  metabolised at 0.25 h, 1 µM            80
2  Cc1cc(NC(=O)c2cccc(S(=O)(=O)NC3(C)COC3)c2)c(C)cc1F  metabolised at 0.25 h, 1 µM            78
3  CC[C@H](C)NS(=O)(=O)c1cccc(C(=O)Nc2ccc(F)cc2)c1  metabolised at 0.25 h, 1 µM            82
4  O=C(Nc1ccc(F)cc1)c1cc(S(=O)(=O)NC2CCCCC2)ccc1F  metabolised at 0.25 h, 1 µM            79

src = ChEMBL document CHEMBL4138314
